- assayed-target: LRRK2, WT (GST-tagged truncated LRRK2) (Homo sapiens (Human))
- measurement-description: LRRK2 kinase assay (Lantha Screen), wild type
- experimental-parameters: 100 nM LRRKtide, 1 mM ATP, 2 μg/mL enzyme; geometric mean of 2-4 determinations unless otherwise indicated
pIC50: −log10 of the molar value.
test-readout: pIC50

| compound | assayed-target | observed |
| --- | --- | --- |
| CC1(C)CC(n2c(C3CCC(F)C3)nc3cnc4ccc(C#N)cc4c32)CCO1 (centres unmarked) [Example 42] | LRRK2, WT (GST-tagged truncated LRRK2) (Homo sapiens (Human)) | 7.34 |
| C[C@@H]1C[C@H](n2c(C3CCC(F)C3)nc3cnc4ccc(C#N)cc4c32)CCO1 (some centres unmarked) [Example 14] | LRRK2, WT (GST-tagged truncated LRRK2) (Homo sapiens (Human)) | 7.82 |
| CO[C@H]1C[C@@H](c2nc3cnc4ccc(Cl)cc4c3n2[C@@H]2CCO[C@H](C)C2)C1 [Example 6] | LRRK2, WT (GST-tagged truncated LRRK2) (Homo sapiens (Human)) | 7.72 |

I: CN1CC(n2c(C3CCC(F)C3)nc3cnc4ccc(C#N)cc4c32)C(F)(F)C1 (centres unmarked) [Example 58]
II: C[C@@H]1C[C@H](n2c(C3CCC(F)C3)nc3cnc4ccc(C#N)cc4c32)CCO1 (single isomer, unassigned) [Example 13]
## Input Lower pIC50: I or II ? Answer format: the label of the selected item.
## Output I
(I: 7.91, II: 8.20)

a: C[C@@H]1C[C@H](n2c(C3CCC(F)(F)CC3)nc3cnc4ccc(C#N)cc4c32)CCO1 [Example 17]
b: CC1(C)C[C@H](n2c([C@H]3CC[C@H](F)C3)nc3cnc4ccc(C#N)cc4c32)CCO1 [Example 53]
c: C[C@@H]1C[C@H](n2c3c(cnc4ccc(Cl)cc43)nc2[C@H]2C[C@@H](F)C2)CCO1 [Example 2]
d: C[C@@H]1C[C@H](n2c(C3CCC(F)C3)nc3cnc4ccc(F)cc4c32)CCO1 (some centres unmarked) [Example 38]
## Input # rank_down: sort by pIC50, max first Give your ranking as a list of the labels in the requested order.
## Output c, a, d, b

1: C[C@@H]1C[C@H](n2c(C3CCC(F)(F)C3)nc3cnc4ccc(Cl)cc4c32)CCO1 (some centres unmarked) [Example 11]
2: CN1CC(n2c(C3CCC(F)C3)nc3cnc4ccc(C#N)cc4c32)C(F)(F)C1 (centres unmarked) [Example 61]
## Input Lower pIC50: 1 or 2 ? Answer format: the label of the selected item.
## Output 2
(2: 6.33, 1: 7.69)

A: CN1CC[C@@H](n2c(C3CCC(F)C3)nc3cnc4ccc(C#N)cc4c32)C1 (some centres unmarked) [Example 32]
B: N#Cc1ccc2ncc3nc([C@H]4C[C@H](F)C4)n(C4CCOCC4(F)F)c3c2c1 (some centres unmarked) [Example 45]
## Input Lower pIC50: A or B ? Answer format: the label of the selected item.
## Output B

----------
- assayed-target: LRRK2, WT (GST-tagged truncated LRRK2) (Homo sapiens (Human), UniProt Q5S007)
- Sequence (Q5S007 970-2527): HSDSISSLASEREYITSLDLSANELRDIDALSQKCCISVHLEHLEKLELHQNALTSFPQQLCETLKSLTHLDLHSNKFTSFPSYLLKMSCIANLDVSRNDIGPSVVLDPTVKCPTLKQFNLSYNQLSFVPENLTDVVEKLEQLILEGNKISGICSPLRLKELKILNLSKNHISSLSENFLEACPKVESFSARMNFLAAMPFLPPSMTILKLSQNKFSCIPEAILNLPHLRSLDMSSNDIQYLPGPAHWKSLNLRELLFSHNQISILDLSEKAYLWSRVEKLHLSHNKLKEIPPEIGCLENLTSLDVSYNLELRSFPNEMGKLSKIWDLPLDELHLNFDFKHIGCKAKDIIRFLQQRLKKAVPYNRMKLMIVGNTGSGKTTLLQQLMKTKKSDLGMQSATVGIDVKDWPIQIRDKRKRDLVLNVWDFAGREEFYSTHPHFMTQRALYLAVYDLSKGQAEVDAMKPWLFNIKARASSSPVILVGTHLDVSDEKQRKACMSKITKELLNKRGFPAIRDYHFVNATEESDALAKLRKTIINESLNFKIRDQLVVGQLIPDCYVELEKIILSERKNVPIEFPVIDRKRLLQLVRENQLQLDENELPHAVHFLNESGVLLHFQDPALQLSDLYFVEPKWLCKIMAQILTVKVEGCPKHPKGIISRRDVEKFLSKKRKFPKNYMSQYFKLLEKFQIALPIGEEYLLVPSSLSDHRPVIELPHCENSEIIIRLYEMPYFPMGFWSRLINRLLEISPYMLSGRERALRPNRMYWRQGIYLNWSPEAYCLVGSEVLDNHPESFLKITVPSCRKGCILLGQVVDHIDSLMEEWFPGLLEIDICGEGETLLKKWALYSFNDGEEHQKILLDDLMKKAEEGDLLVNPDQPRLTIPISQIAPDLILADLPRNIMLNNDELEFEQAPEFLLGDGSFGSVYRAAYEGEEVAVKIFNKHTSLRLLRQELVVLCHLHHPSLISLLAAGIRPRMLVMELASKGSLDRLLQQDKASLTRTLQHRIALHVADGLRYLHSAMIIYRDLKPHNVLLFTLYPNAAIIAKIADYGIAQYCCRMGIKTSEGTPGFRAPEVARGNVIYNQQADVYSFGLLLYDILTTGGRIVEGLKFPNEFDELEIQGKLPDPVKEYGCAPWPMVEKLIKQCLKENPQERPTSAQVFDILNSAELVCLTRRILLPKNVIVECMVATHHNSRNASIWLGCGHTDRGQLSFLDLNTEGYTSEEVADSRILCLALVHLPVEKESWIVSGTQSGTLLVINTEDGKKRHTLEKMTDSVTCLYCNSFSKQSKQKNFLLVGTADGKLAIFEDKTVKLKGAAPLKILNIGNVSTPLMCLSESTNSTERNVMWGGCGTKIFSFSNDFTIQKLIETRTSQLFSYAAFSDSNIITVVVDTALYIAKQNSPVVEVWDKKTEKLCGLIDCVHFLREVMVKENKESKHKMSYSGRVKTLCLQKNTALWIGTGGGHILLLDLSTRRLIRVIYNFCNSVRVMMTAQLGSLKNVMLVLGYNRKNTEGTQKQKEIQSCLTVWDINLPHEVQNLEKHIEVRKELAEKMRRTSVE
- measurement-description: LRRK2 kinase assay (Lantha Screen), wild type
- experimental-parameters: 100 nM LRRKtide, 1 mM ATP, 2 μg/mL enzyme; geometric mean of 2-4 determinations unless otherwise indicated
test-readout: IC50 (nM)

Consider the following illustrative entries.
| compound | IC50 (nM) |
| --- | --- |
| CN1CC[C@@H](n2c3c(cnc4ccc(C#N)cc43)nc2[C@H]2C[C@@H](F)C2)C1 [Example 24] | 5.27 |
| C[C@@H]1C[C@H](n2c3c(cnc4ccc(C#N)cc43)nc2[C@H]2C[C@@](C)(F)C2)CCO1 [Example 18] | 10.4 |

a: CN1CC[C@@H](n2c(C3CCC(F)C3)nc3cnc4ccc(F)cc4c32)C1 (stereo partly shown) [Example 34]
b: C[C@@H]1C[C@H](n2c([C@H]3CCOC3)nc3cnc4ccc(Cl)cc4c32)CCO1 [Example 4]
## Input Endpoint returns the identifier whose IC50 is numerically larger, either a or b . Answer format: the label of the selected item.
## Output a
